- System name: T1, Ep-CAM (UniProt P16422 24-265, limits assumed)
- T1 construct: Antigen of the Biacore analysis of ING-1 variants
- T1 sequence (looked up): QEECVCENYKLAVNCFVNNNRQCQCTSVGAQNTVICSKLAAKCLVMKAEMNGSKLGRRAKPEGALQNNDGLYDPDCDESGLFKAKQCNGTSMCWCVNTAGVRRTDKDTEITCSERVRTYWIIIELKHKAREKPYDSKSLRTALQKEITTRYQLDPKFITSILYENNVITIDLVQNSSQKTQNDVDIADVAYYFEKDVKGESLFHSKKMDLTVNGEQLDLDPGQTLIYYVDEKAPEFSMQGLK
- Test: Biacore, Fab periplasmic extract
Readout label: fold difference in affinity vs original (fold)
I only need the number, in fold, no unit after it.

Guide cases for fold difference in affinity vs original, answers given:
ING-1 heavy chain P58N (Fab, V domains shown) VH: QIQLVQSGPELKKPGETVKISCKASGYTFTKYGMNWVKQAPGKGLKWMGWINTYTEENTYGDDFKGRFAFSLETSASTANLQINNLKSEDTATYFCARFGSAVDYWGQGTSVTVSS VL: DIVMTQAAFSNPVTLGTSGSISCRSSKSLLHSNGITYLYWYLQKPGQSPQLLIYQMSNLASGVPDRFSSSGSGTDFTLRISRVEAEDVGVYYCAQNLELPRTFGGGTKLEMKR    0.9
ING-1 heavy chain Y54D (Fab, V domains shown) VH: QIQLVQSGPELKKPGETVKISCKASGYTFTKYGMNWVKQAPGKGLKWMGWINTDTEEPTYGDDFKGRFAFSLETSASTANLQINNLKSEDTATYFCARFGSAVDYWGQGTSVTVSS VL: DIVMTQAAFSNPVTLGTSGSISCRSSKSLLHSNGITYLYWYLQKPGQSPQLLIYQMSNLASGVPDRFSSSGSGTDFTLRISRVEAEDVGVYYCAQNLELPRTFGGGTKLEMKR    0.05

Query binder follows.
Need fold difference in affinity vs original of ING-1 heavy chain Y105S (Fab, V domains shown) VH: QIQLVQSGPELKKPGETVKISCKASGYTFTKYGMNWVKQAPGKGLKWMGWINTYTEEPTYGDDFKGRFAFSLETSASTANLQINNLKSEDTATYFCARFGSAVDSWGQGTSVTVSS VL: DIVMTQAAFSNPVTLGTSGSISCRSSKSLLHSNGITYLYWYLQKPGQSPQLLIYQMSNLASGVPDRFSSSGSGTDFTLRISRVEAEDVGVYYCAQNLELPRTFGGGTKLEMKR , thanks. 0.09
